Data credit: the supplement of paper PMC10598134

For each of the sequences below, state its collision cross section.
assay: collision cross section of modified peptide (TIMS, N2, iRT-aligned); higher = larger / more extended gas-phase ion; conditions: charge state: 2; modification: Malonyl
Give bare numbers, in Å².

For every item in the list below, what is its measured collision cross section?
1. LLEEEDSKLK [_LLEEEDSK(Malonyl)LK_]
2. ASNAAVKLAESK [_ASNAAVK(Malonyl)LAESK_]
3. VNALKNLQVK [_VNALK(Malonyl)NLQVK_]
4. SKHLQEQLNELK [_SK(Malonyl)HLQEQLNELK_]
5. IINEPTAAAIAYGLDKK [_IINEPTAAAIAYGLDK(Malonyl)K_]
6. VTLEVGKVIQQGR [_VTLEVGK(Malonyl)VIQQGR_]
7. GFALVGVGSEASSKK [_GFALVGVGSEASSK(Malonyl)K_]

stdout:
379.46
371.16
368.09
415.64
458.91
413.16
414.22
